- Test system: SNB-19
- experimental_protocol: NCI tumour cell line growth inhibition, 48 h
Activity calls are given as the source filed them. Cut-off read from the data, not from the text of the source: active = GI50 up to about 1.1 µM and inactive = higher.
Write down the outcome that applies. Available outcomes: active, inactive

Take a look at these entries with their results.
                                   molecule  experimental_target  answer_label
0                           S=C(S)NCNC(=S)S               SNB-19      inactive
1  CC1=C(C2=C(C)C(=O)C(=O)c3cc(C)ccc32)c2ccc(C)cc2C(=O)C1=O               SNB-19        active
2  O=C(Nc1cccc(O)c1)C(=O)C(C(=O)c1ccc(Cl)c(Cl)c1)C1OC(=O)c2ccccc21 (stereo not given)               SNB-19      inactive

Hey, what did the test say about c1ccc2c(c1)N=C(c1cccc3ccccc13)CC(c1ccc3c(c1)OCO3)S2 (stereo not given) ? inactive

====

- Test system: IGROV-1
- experimental_protocol: NCI tumour cell line growth inhibition, 48 h
Activity calls are given as the source filed them. No stated cut-off is given here; in the data, active = GI50 up to about 1.1 µM and inactive = higher.
measured_parameter: GI50

The cases that follow already have their GI50 on record.
In [3]: df
Out[3]:
                                   compound       value_measured
0  NC1CC(=O)c2cc(Cl)sc21 (centres undefined)  > 100 µM (inactive)
1  O=C(Cc1ccccc1)NN1C(=O)C(Cl)C1c1cccc(O)c1 (centres undefined)   17.2 µM (inactive)
2                   CSc1nc2nccnc2c(=O)[nH]1  > 100 µM (inactive)

Each of the following entries comes with a recorded value; kindly state GI50 for each.
1. Nc1nc(O)c2c(ncn2CC(O)CO)n1 (centres undefined)
2. N#Cc1cccc(Nc2ccccc2SSc2ccccc2Nc2cccc(C#N)c2)c1
3. CC1(C)O[C@@H](CP(c2cccc3ccccc23)c2cccc3ccccc23)[C@H](CP(c2cccc3ccccc23)c2cccc3ccccc23)O1
4. Cc1ccnc2nc(-c3cccc(Cl)c3)cc(O)c12
5. N#CC1=C(N)N(c2ccccc2)C(c2ccco2)C1(C#N)C#N (centres undefined)
6. CSCC(COC(C)=O)(CSC)c1ccncc1
7. C[C@]12CC[C@H]3[C@@H](CC=C4C[C@@H](O)CC[C@@]43C)[C@@H]1C/C(=C/c1ccccc1)[C@@H]2O

1. > 100 µM (inactive)
2. 8.65 µM (inactive)
3. > 100 µM (inactive)
4. 0.185 µM (active)
5. 19.2 µM (inactive)
6. > 100 µM (inactive)
7. 11.8 µM (inactive)

Each of the following entries comes with a recorded value; kindly state GI50 for each.
1. COc1cc2c(cc1OC)C(=O)N(c1ccc(OCCN3CCCC3)cc1)C2=O
2. OC(COc1ccccc1)CN1CCCCC1 (centres undefined)
3. CC(C)(C)OC(=O)NC(Cc1ccccc1)NC(=O)NC(=O)OCc1ccccc1 (centres undefined)
4. OC1[C@H]([C@H]2CCCC[C@@H]2O)CCC[C@@H]1[C@@H]1CCCC[C@H]1O (some centres undefined)
5. C=C(c1ccccc1)c1cc2c(=O)[nH]ccc2n1C

1. > 100 µM (inactive)
2. > 100 µM (inactive)
3. > 100 µM (inactive)
4. > 100 µM (inactive)
5. 44.4 µM (inactive)

Each of the following entries comes with a recorded value; kindly state GI50 for each.
1. N#Cc1c(SCc2ccccc2)nc(-c2ccccc2)[nH]c1=S
2. N#CC(Cl)CS(=O)(=O)c1ccccc1 (centres undefined)
3. O=C1C=CC2(O[C@H](c3ccccc3)[C@@H](c3ccccc3)O2)C(SC(=O)c2ccccc2)C1 (some centres undefined)
4. CC(=O)/C(=N\O)C(=O)NCc1ccccc1
5. COC(=O)C1Cc2c([nH]c3ccccc23)[C@H](CC(C)C)N1 (some centres undefined)

["29.9 µM (inactive)", "16.9 µM (inactive)", "1.52 µM (inactive)", "> 100 µM (inactive)", "> 100 µM (inactive)"]

Each of the following entries comes with a recorded value; kindly state GI50 for each.
1. Oc1cc(-c2cccc(Cl)c2)nc2cc3c(cc12)OCO3
2. Nc1nc2[nH]cc(CCc3ccc(C(=O)N[C@@H](CCC(=O)O)C(=O)O)cc3)c2c(=O)[nH]1 [PEMETREXED]
3. CCOC(=O)C1CCC(=O)N1C(=O)c1ccc(Cl)cc1 (centres undefined)
4. CCN(CC)C(=O)N1CCN(C=S)CC1
5. Cc1ccc(NC(=O)CC(=O)n2nc(-c3ccccc3)c(/N=N/c3ccc(Cl)cc3)c2-c2ccccc2)cc1
6. Cc1nc(N)nc(S)c1CCCNc1ccccc1
7. C=C1C(=O)OC2CC(C)C(/C=C/C(C)=O)=CCC12 (centres undefined)

0.151 µM (active)
> 100 µM (inactive)
> 100 µM (inactive)
> 100 µM (inactive)
57.7 µM (inactive)
> 100 µM (inactive)
> 100 µM (inactive)

Each of the following entries comes with a recorded value; kindly state GI50 for each.
1. C[C@@H]1CCC[C@]2(C)O[C@H]2CC[C@@](C)(O)[C@@H]2CC3=C(CO)C(=O)O[C@H]3[C@H]1O2
2. CCOC(=O)C(C(=O)OCC)C1C=CCC2c3ccccc3COCC21 (centres undefined)
3. C=C1CC(CN2CCC(=O)NC2=O)(c2ccccc2)OC1=O (centres undefined)
4. Cc1cccc(C2=C/C(=C(\SS/C(C(=O)c3ccc(OCC(=O)O)c(Cl)c3Cl)=C3\C=C(c4cccc(C)c4)SS3)C(=O)c3ccc(OCC(=O)O)c(Cl)c3Cl)SS2)c1

["25.5 µM (inactive)", "75.5 µM (inactive)", "7.87 µM (inactive)", "12.1 µM (inactive)"]

Each of the following entries comes with a recorded value; kindly state GI50 for each.
1. Cc1cc(Cl)ccc1OCC(=O)Nc1nc(N)nc(N)n1
2. Cc1cc(C)n2c(-c3ccccc3)c(C)cc2n1
3. Cc1c2c(c(C)n1-c1ccccc1)C(=O)N(CCN1CCN(c3cccc(C(F)(F)F)c3)CC1)C2=O
4. COc1cc([N+](=O)[O-])ccc1NC(=O)c1cccc([N+](=O)[O-])c1O
5. NNc1nnc(CCCCCCCCc2nnc(NN)n2N)n1N
6. N#CC(C#N)=C(N)/C(C#N)=C\c1ccnc2ccccc12
7. Nc1c(C(=O)O)nnc2cc(Cl)ccc12

1: > 100 µM (inactive); 2: 66.2 µM (inactive); 3: > 100 µM (inactive); 4: 14.1 µM (inactive); 5: 55.3 µM (inactive); 6: 22.1 µM (inactive); 7: > 100 µM (inactive)

Each of the following entries comes with a recorded value; kindly state GI50 for each.
1. O=[N+]([O-])c1ccc2c(c1)Nc1c3ccccc3nc3cccc-2c13
2. Cn1c(=O)ccc2cc(C(=O)c3ccccc3)ccc21
3. c1ccc2c(c1)nc1n2C2CCC(C2)N1 (centres undefined)

1. 1.47 µM (inactive)
2. 24.7 µM (inactive)
3. > 10 µM (inactive)

Each of the following entries comes with a recorded value; kindly state GI50 for each.
1. CC(C)NC(=O)OCc1c(COC(=O)NC(C)C)n(C)c2c1ccc1cc(Cl)c(Cl)cc12
2. CN(CCCCN1CCCC1)CCCCN(C)C(=O)Cc1ccc(Cl)c(Cl)c1

10.5 µM (inactive)
18.2 µM (inactive)

Data point: Cc1cc2cc3ccccc3cc2c(=O)[nH]1 ; GI50 = > 10 µM (inactive)

meta.source: ChEMBL document CHEMBL1201862
